Reference source: patent US20230287044A1

Could you please report measured MIC MRAB (A. baumannii) ATCC BAA 1605 for the items listed next?
# Tested on: MRAB (A. baumannii) ATCC BAA 1605
# Assay type: cell-based, Acinetobacter baumannii
# experimental_context: ATCC BAA 1605, 18 h
Square brackets hold non-standard residues; d marks the D form. Peptide text beside a SMILES is read from it. dTrp(5-OMe) = COc1ccc2[nH]cc(C[C@@H](N)C(=O)O)c2c1
Give just the numeric value; µM need not be written.

Fill in the recorded MIC MRAB (A. baumannii) ATCC BAA 1605 for this molecule, with MRAB (A. baumannii) ATCC BAA 1605 as test system: CC(C)[C@@H](NC(=O)[C@@H](Cc1c[nH]c2ccccc12)NC(=O)[C@@H](CCCNC(=N)N)NC(=O)[C@@H](CCCNC(=N)N)NC(=O)[C@H](N)CCCNC(=N)N)C(=O)N[C@H](Cc1c[nH]c2ccccc12)C(=O)N[C@@H](C(=O)N[C@@H](C(=O)N[C@H](Cc1c[nH]c2ccccc12)C(=O)N[C@H](CCCCN)C(N)=O)C(C)C)C(C)C [KSH57, rrrwvwvvwk] (H-[dR][dR][dR][dW][dV][dW][dV][dV][dW][dK]-NH2; N-terminus assumed)
5

Fill in the recorded MIC MRAB (A. baumannii) ATCC BAA 1605 for this molecule, with MRAB (A. baumannii) ATCC BAA 1605 as test system: CC[C@@H](C)[C@@H](NC(=O)[C@@H](Cc1c[nH]c2ccccc12)NC(=O)[C@@H](CC(C)C)NC(=O)[C@@H](CC(C)C)NC(=O)[C@H](N)Cc1c[nH]c2ccc(OC)cc12)C(=O)NCC(=O)N[C@H](CC(C)C)C(=O)N[C@H](CCCNC(=N)N)C(=O)N[C@H](CCCCN)C(=O)N[C@H](CCCCN)C(=O)N[C@H](CCCNC(=N)N)C(N)=O [KSH15, wMllwiglrkkr] (H-[dTrp(5-OMe)][dL][dL][dW][dI]G[dL][dR][dK][dK][dR]-NH2; N-terminus assumed)
1.25

Fill in the recorded MIC MRAB (A. baumannii) ATCC BAA 1605 for this molecule, with MRAB (A. baumannii) ATCC BAA 1605 as test system: CC(C)[C@@H](NC(=O)[C@H](N)Cc1c[nH]c2ccccc12)C(=O)N[C@@H](C(=O)N[C@H](Cc1c[nH]c2ccccc12)C(=O)N[C@@H](C(=O)N[C@H](Cc1c[nH]c2ccccc12)C(=O)N[C@H](CCCCN)C(=O)N[C@H](CCCCN)C(=O)N[C@H](CCCCN)C(N)=O)C(C)C)C(C)C [KSH66, wvvwvwkkk] (H-[dW][dV][dV][dW][dV][dW][dK][dK][dK]-NH2; N-terminus assumed)
1.25

Fill in the recorded MIC MRAB (A. baumannii) ATCC BAA 1605 for this molecule, with MRAB (A. baumannii) ATCC BAA 1605 as test system: CC(C)[C@@H](NC(=O)[C@@H](Cc1c[nH]c2ccccc12)NC(=O)[C@@H](CCCNC(=N)N)NC(=O)[C@@H](CCCNC(=N)N)NC(=O)[C@H](N)CCCNC(=N)N)C(=O)N[C@H](Cc1c[nH]c2ccccc12)C(=O)N[C@@H](C(=O)N[C@@H](C(=O)N[C@@H](C(=O)N[C@H](Cc1c[nH]c2ccccc12)C(N)=O)C(C)C)C(C)C)C(C)C [KSH82, rrrwvwvvvw] (H-[dR][dR][dR][dW][dV][dW][dV][dV][dV][dW]-NH2; N-terminus assumed)
10

Fill in the recorded MIC MRAB (A. baumannii) ATCC BAA 1605 for this molecule, with MRAB (A. baumannii) ATCC BAA 1605 as test system: CC[C@@H](C)[C@@H](NC(=O)[C@@H](Cc1c[nH]c2ccccc12)NC(=O)[C@@H](CCCNC(=N)N)NC(=O)[C@H](N)CCCNC(=N)N)C(=O)N[C@H](Cc1c[nH]c2ccccc12)C(=O)N[C@@H](C(=O)N[C@H](CC(C)C)C(=O)N[C@H](Cc1c[nH]c2ccccc12)C(=O)N[C@@H](CCCNC(=N)N)C(N)=O)C(C)C [KSH55, rrwiwvlwR] (H-[dR][dR][dW][dI][dW][dV][dL][dW]R-NH2; N-terminus assumed)
0.63
